meta.source: patent US20230134571A1

- experimental_target: HIV Env of isolate 9004SS_A3_4 (clade A) (HIV)
- protocol_notes: cell-based or functional assay
test_readout: IC80 (µg/ml) with constrains

ePGDM5 (antibody, V domains shown) VH: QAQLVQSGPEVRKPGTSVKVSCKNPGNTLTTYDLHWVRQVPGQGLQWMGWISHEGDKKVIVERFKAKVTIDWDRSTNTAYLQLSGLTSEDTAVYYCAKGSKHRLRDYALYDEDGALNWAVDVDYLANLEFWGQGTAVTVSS VL: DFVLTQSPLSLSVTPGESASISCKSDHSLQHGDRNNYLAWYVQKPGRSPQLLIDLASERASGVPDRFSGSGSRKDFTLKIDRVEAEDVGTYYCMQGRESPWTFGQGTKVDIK    > 100 µg/mL

List the reported IC80 (µg/ml) with constrains of each binder below.
1. ePGDM13 (antibody, V domains shown) VH: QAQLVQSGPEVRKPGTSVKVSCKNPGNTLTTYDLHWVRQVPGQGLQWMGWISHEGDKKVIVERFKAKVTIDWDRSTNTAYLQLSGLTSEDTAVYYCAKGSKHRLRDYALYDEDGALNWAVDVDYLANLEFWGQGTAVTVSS VL: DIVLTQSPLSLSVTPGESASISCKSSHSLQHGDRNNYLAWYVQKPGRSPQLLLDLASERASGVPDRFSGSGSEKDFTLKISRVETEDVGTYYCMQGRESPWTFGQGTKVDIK
2. ePGDM9 (antibody, V domains shown) VH: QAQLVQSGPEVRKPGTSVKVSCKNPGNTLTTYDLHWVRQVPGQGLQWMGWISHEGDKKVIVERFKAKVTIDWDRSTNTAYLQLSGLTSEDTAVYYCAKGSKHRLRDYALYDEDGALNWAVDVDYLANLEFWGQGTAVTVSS VL: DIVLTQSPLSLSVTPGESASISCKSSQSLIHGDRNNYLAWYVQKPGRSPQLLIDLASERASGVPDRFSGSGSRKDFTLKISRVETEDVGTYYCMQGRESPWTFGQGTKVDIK
3. PGDM1400 (antibody, V domains shown) VH: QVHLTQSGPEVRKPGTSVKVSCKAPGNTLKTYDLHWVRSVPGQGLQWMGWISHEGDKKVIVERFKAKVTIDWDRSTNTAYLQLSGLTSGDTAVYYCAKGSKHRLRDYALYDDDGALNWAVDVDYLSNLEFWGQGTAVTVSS VL: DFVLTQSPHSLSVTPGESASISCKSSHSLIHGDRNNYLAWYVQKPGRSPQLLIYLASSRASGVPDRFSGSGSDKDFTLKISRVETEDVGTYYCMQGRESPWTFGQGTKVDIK

> 100 µg/mL
> 100 µg/mL
> 100 µg/mL
